Reported MIC S. aureus (MRSA) is given for each of the following compounds.
tested on: MRSA NRS 70; assay: microbe, parasite or virus in culture; type: cell-based, S. aureus
Hi! Could you send only the number? It should be in µg/mL, unit omitted.

// solved cases for MIC S. aureus (MRSA) follow
COMPOUND	UNIT LABEL	MIC S. aureus (MRSA)
CC(=O)N(O)CCCP(=O)(OCOC(=O)C(C)(C)C)OCOC(=O)C(C)(C)C [Compound 24]	µg/mL	50
CC(=O)N(O)CCCP(=O)(OCC(=O)OC(C)(C)C)OCC(=O)OC(C)(C)C [Compound 23]	µg/mL	25

Read the next record carefully.
**Query** Quick one: MIC S. aureus (MRSA) of CC(=O)N(O)CCCP(=O)(OC(C)OC(=O)OC(C)(C)C)OC(C)OC(=O)OC(C)(C)C (stereo not shown) [Compound 25] ?
**Result** 50

---

system: Mtb H37Rv (ATCC 27294); test: microbe, parasite or virus in culture; type: cell-based, Mycobacterium tuberculosis; conditions: Mycobacterium tuberculosis, read-out: Mtb MIC (ug/mL) (7H9)
A collection of compounds and their measured MIC

# annotated cases, reported MIC shown
COMPOUND	MIC
CCOP(=O)(CCCN(OCCc1ccc(C)cc1)C(C)=O)OCC [GSJ82]	≥ 400 µg/mL
CCOP(=O)(CCCN(O)C(=O)C1CCCCC1)OCC [ERJ 112]	> 200 µg/mL
CC(=O)N(CCCP(=O)(OCOC(=O)C(C)(C)C)OCOC(=O)C(C)(C)C)OCCCCc1ccccc1 [GSJ89]	12.5 µg/mL
CCOP(=O)(CCCN(O)C(=O)c1ccccc1)OCC [ERJ 58]	> 500 µg/mL
O=C(C1CCCCC1)N(O)CCCP(=O)([O-])O.[Na+] [ERJ 116]	> 200 µg/mL

# evaluate next
**Query** Please tell me: MIC of CCOP(=O)(CCCN(O)C(=O)CCc1ccccc1)OCC [ERJ 70] , system Mtb H37Rv (ATCC 27294)?
**Result** 3.12 µg/mL

---

A collection of molecules and their measured MIC M. tuberculosis (H37Rv)
tested on: Mtb H37Rv (ATCC 27294); assay: microbe, parasite or virus in culture; assay type: cell-based, Mycobacterium tuberculosis
Give just the number in µg/mL; leave the unit off.

**Query** Tell me reported MIC M. tuberculosis (H37Rv) for CCOC(=O)OC(C)OP(=O)(CCCN(O)C(C)=O)OC(C)OC(=O)OCC (centres unmarked) , tested with Mtb H37Rv (ATCC 27294).
**Result** 400

**Query** Check CCOP(=O)(CCCN(O)C=O)OCC too.
**Result** 400

**Query** Thanks! And CC(=O)N(O)CCCP(=O)(OCC(=O)OC(C)(C)C)OCC(=O)OC(C)(C)C ?
**Result** 400

**Query** Do the same for CC(=O)N(O)CCCP(=O)(OC(C)OC(=O)OC(C)(C)C)OC(C)OC(=O)OC(C)(C)C (centres unmarked) please
**Result** 400

**Query** Ok, now CCCCCCOP(=O)(CCCN(O)C(C)=O)OCCCCCC
**Result** 100

---

test system: Mtb H37Rv (ATCC 27294); test: microbe, parasite or virus in culture; assay type: cell-based, Mycobacterium tuberculosis; conditions: Mycobacterium tuberculosis, read-out: Mtb MIC (ug/mL) (7H9)
# Lookup of reported MIC keyed by entry
Give your result in µg/mL as a bare value.

MOLECULE	MIC, µg/mL
CCOP(=O)(CCCN(OCc1ccc(-c2ccccc2)cc1)C(C)=O)OCC [GSJ72]	200

Now, please, on to the next molecule.
**Query** Which measured MIC belongs to CCOP(=O)(CCCN(OCc1ccc(C(C)C)cc1)C(C)=O)OCC [GSJ70] , tested on Mtb H37Rv (ATCC 27294)?
**Result** 400

---

MIC for assorted compounds
tested on: E. coli tolc; experiment: microbe, parasite or virus in culture; assay type: cell-based; conditions: Escherichia coli, read-out: MIC E. coli tolc

Worked cases, MIC given:
COMPOUND	SYSTEM TESTED	MIC
CCOP(=O)(CCCN(OCCCCc1ccccc1)C(C)=O)OCC	E. coli tolc	200 µg/mL
CCOP(=O)(CCCN(O)C(=O)c1ccccc1)OCC	E. coli tolc	> 200 µg/mL
CCOP(=O)(CCCN(OCc1ccccc1)C(C)=O)OCC [GSJ 20 (Rotamer B)]	E. coli tolc	> 200 µg/mL
CCOP(=O)(CCCN(O)C(=O)c1cccc2ccccc12)OCC	E. coli tolc	> 200 µg/mL
CCOP(=O)(CCCN(OCCCc1ccccc1)C(C)=O)OCC	E. coli tolc	> 200 µg/mL
CCOP(=O)(CCCN(O)C(=O)CCc1ccccc1)OCC	E. coli tolc	> 200 µg/mL
CCOP(=O)(CCCN(O)C(=O)c1ccc2ccccc2c1)OCC	E. coli tolc	> 200 µg/mL
CCOP(=O)(CCCN(OCCc1ccc(OC)cc1)C(C)=O)OCC	E. coli tolc	> 200 µg/mL

**Query** Record CCOP(=O)(CCCN(OC(C)c1ccccc1)C(C)=O)OCC (centres unmarked) : what is its MIC with E. coli tolc?
**Result** > 200 µg/mL

**Query** What do you get for CC(=O)N(O)CCCP(=O)(O)O [FR900098, reference compound] ?
**Result** 12.5 µg/mL

**Query** # repeat for CCOP(=O)(CCCN(O)C(=O)Cc1ccccc1)OCC
**Result** > 200 µg/mL

---

target: M. tuberculosis Dxr (Mycobacterium tuberculosis); experiment: biochemical; settings: IC50 (uM)
Listed below: IC50 values for each entry.

COMPOUND	VALUE REPORTED
O=C(CCCc1ccccc1)N(O)CCCP(=O)(O)O	3.12 µM
O=C(Cc1ccccc1)N(O)CCCP(=O)(O)O	7.49 µM
CC(=O)N(CCCP(=O)(O)O)OC(C)c1ccccc1 (stereo not shown)	161 µM

Read the next record carefully.
**Query** Recorded IC50 of O=C(CCc1ccccc1)N(O)CCCP(=O)(O)O , please.
**Result** 2.72 µM

---

tested on: E. coli k12; experiment: microbe, parasite or virus in culture; format: cell-based; conditions: Escherichia coli, K12, read-out: MIC E. coli k12
ASSAY METRIC: MIC

COMPOUND	MIC
CCOP(=O)(CCCN(OCCc1ccc(OC)cc1)C(C)=O)OCC	> 200 µg/mL
CCOP(=O)(CCCN(O)C(=O)CCc1ccccc1)OCC	> 200 µg/mL
CCOP(=O)(CCCN(O)C(=O)CCCc1ccccc1)OCC	> 200 µg/mL
CCOP(=O)(CCCN(OCc1ccccc1)C(C)=O)OCC [GSJ 20 (Rotamer B)]	> 200 µg/mL

We now examine a further compound.
**Query** Item CCOP(=O)(CCCN(OC(C)c1ccccc1)C(C)=O)OCC (centres unmarked) with E. coli k12 - MIC?
**Result** > 200 µg/mL

---

system: E. coli tolc; assay: microbe, parasite or virus in culture; format: cell-based; conditions: Escherichia coli, read-out: MIC E. coli tolc
ASSAY METRIC: MIC (µg/mL)
Express it in µg/mL; write the number only.

COMPOUND	UNIT LABEL	MIC
O=CN(O)CCCP(=O)(O)O [Fosmidomycin, reference compound]	µg/mL	6.25

// switching to the query compound
**Query** GET /values?readout=MIC&item= CCOP(=O)(CCCN(O)C(=O)c1ccc(-c2ccccc2)cc1)OCC
**Result** 100

---

target: M. tuberculosis Dxr (Mycobacterium tuberculosis, UniProt P9WNS1); test: biochemical; settings: IC50 (ug/ml)
Sequence (P9WNS1 whole entry, looked up): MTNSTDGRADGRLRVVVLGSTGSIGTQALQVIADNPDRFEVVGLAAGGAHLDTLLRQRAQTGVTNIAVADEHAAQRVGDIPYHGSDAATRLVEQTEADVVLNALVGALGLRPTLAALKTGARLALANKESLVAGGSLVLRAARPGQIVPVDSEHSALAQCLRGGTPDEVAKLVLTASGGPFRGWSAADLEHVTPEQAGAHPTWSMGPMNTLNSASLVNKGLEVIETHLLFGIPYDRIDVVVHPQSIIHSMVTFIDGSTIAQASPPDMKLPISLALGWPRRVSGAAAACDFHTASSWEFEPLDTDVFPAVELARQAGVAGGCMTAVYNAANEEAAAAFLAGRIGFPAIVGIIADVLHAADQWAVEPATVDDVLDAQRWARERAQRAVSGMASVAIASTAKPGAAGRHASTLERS
ASSAY METRIC: pIC50
Kindly note that pIC50 refers to -log10 of the concentration in mol/L and answer with the value alone.

Before answering, review these 3 worked examples.
COMPOUND	ASSAY METRIC	VALUE REPORTED
O=C(CCc1ccccc1)N(O)CCCP(=O)(O)O	pIC50	5.53
O=C(Cc1ccccc1)N(O)CCCP(=O)(O)O	pIC50	5.09
CC(=O)N(CCCP(=O)(O)O)OC(C)c1ccccc1 (stereo not shown)	pIC50	3.76

Alright, here's another compound for you.
**Query** Quick check: pIC50 of O=C(CCCc1ccccc1)N(O)CCCP(=O)(O)O ?
**Result** 5.47

---

target: UniProt P9WNS1; assay: biochemical; conditions: Mtb Dxr IC50 (ug/mL)
pIC50: −log10 of the molar value.
We'd kindly ask you to apply these pIC50 classes: bin 0 = under 4, bin 1 = from 4 up to 5, bin 2 = 5 and over

Sample answers from the record:
COMPOUND	CAT
O=C(CCCc1ccccc1)N(O)CCCP(=O)(O)O	bin 2
CC(=O)N(CCCP(=O)(O)O)OCc1ccc(C(C)C)cc1	bin 1
CC(=O)N(CCCP(=O)(O)O)OCC1CCCCC1	bin 0
O=C(CCc1ccccc1)N(O)CCCP(=O)(O)O	bin 2
CC(=O)N(CCCP(=O)(O)O)OCc1ccc2ccccc2c1	bin 1

**Query** The entry to classify is CC(=O)N(CCCP(=O)(O)O)OCc1ccc(-c2ccccc2)cc1 ; which class holds it?
**Result** bin 1

**Query** Now the compound CC(=O)N(CCCP(=O)(O)O)OC(C)c1ccccc1 (centres unmarked)
**Result** bin 0

**Query** Note, next up: O=C(C1CCCCC1)N(O)CCCP(=O)([O-])O.[Na+]
**Result** bin 1
